The origin of these recorded values is the Human Domainome abundance scans (Beltran et al. 2025).

B1: Far upstream element-binding protein 3, residues 75 to 150; numbered along this chain, Q96I24 (parent)
chain: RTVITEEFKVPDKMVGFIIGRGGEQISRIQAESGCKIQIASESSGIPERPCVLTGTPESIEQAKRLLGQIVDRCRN

# Variants of: B1
# PROTOCOL DETAILS: abundance fitness (aPCA) (normalised: wild type 0, dead -1); higher = more abundant; growth selection in yeast, the domain comes from the species named
# CONDITION CONTEXT: Homo sapiens
Here, each record is paired with measured abundance fitness data.
PARAMETER: abundance fitness

- R21K: -0.025
- T2V: -0.035
- R1P: -0.236
- Q25W: -0.213
- E24P: -0.271
- G16S: -0.032
- V10N: -0.612
- Q30W: -0.487
- F17N: -0.141
- E32C: -0.128
- R49E: -0.159
- V15F: -0.072
- A40K: -0.024
- L66Q: -0.072
- C35Q: -0.588
- S59E: -0.04
- R28N: -0.125
- I19R: -0.045
- V10H: -0.4
- A31L: -0.063
